The reported numbers originate from PubChem BioAssay (NCI).

Listing of entries alongside the reported growth.
System: DU-145 prostate
experiment: NCI-60 one-dose screen, 48 h (100 = growth as untreated, 0 = no growth, -100 = all killed)
particulars: 10 µM unless noted
This is part of a sample that, as a whole, favours compounds with a hit. Of some 83,000 tested, about 20% had one in any assay.
Lab book: enter the figure in %, no units written.

[[record]]
molecule = "CN(CCCCCl)P(=O)(OCc1ccc([N+](=O)[O-])o1)C(F)(F)c1ccc(CC(=O)NC[C@@H](O)/C=C\\[C@@H](O)[C@H](CO)Cc2ccccc2)cc1 (some centres undefined)"
recorded_endpoint = "growth"
endpoint_value = 105

[[record]]
molecule = "COc1ccc(Nc2c3c4c(cccc4[nH]c2=O)C(=O)c2ccccc2-3)cc1"
recorded_endpoint = "growth"
endpoint_value = -20.9

[[record]]
molecule = "CC1=C(O)C(=O)C(C(C#N)(C#N)C(C#N)C#N)C1 (centres undefined)"
recorded_endpoint = "growth"
endpoint_value = 94.7


Ask: State the recorded growth for this entry: `C#CC(F)(F)[C@]1(O)CC[C@H]2[C@@H]3CCC4=CC(=O)CCC4=C3[C@@H](c3ccc(C4CC4)cc3)C[C@@]21C`
Reply: 30.3

Ask: `Cc1ccc(NC(=O)/C=C/c2ccccc2)c(C(N)=O)c1` ?
Reply: -8.15

Ask: `N#Cc1nnn(-c2ccc(S(N)(=O)=O)cc2)c1NCC(=O)c1ccccc1` ?
Reply: 106

====

Listing of entries alongside the reported growth.
Tested on: UACC-257 melanoma
experiment: NCI-60 one-dose screen, 48 h (100 = growth as untreated, 0 = no growth, -100 = all killed)
particulars: 10 µM unless noted
The panel holds about 83,000 compounds, 20% with a hit somewhere; the sample as a whole holds those more often. Activity calls are given as the source filed them. Rule for the calls: active = growth percent below 10; inactive = the rest.

[[record]]
molecule = "COc1ccc2c(c1)c(-c1nonc1-c1cn(C)c3ccccc13)cn2C"
recorded_endpoint = "growth"
endpoint_value = "66.5% (inactive)"


Ask: State the recorded growth for this entry: `COc1cccc(-c2nc3sccn3c2-c2ccnc(NCCCNS(=O)(=O)c3cccc(Cl)c3)c2)c1`
Reply: 55.2% (inactive)

Ask: `O=C1/C(=C/c2cn(-c3ccccc3)nc2-c2ccccc2)SC(=S)N1CCc1ccccc1` ?
Reply: 113% (inactive)

====

System: DU-145 prostate
experiment: NCI-60 one-dose screen, 48 h
particulars: 10 µM unless noted
About 83,000 compounds went through this panel and 20% of them were active in at least one assay; those are over-represented in the sample as a whole. Calls of active or inactive are those of the source. Rule for the calls: active = growth percent below 10; inactive = the rest.
Pick one: active, inactive

Example entries begin here.
[[record]]
compound = "Cn1c(NCCc2ccc(O)c(O)c2)nc2c1c(=O)n(Cc1ccc(Cl)c(Cl)c1)c(=O)n2C"
cat = "inactive"

[[record]]
compound = "CCn1c(Cc2ccccc2Nc2c(Cl)cccc2Cl)nnc1SCC(=O)NN1C(=O)/C(=C/c2cc(OC)c(O)c(OC)c2)SC1=S"
cat = "inactive"


Ask: Dear colleague, could you share the recorded outcome for O=C1/C(=C/N2N=C(c3ccc4ccccc4c3)CC2c2ccccc2O)SC(=S)N1c1cccnc1 (centres undefined) when you have a moment?
Reply: inactive

Ask: `CCCOc1cc2ccccc2cc1C(=O)Nc1nc(NC)c2c(ccc3nccc32)[nH]1` ?
Reply: active

Ask: `Cn1ncc2c(=O)nc3c(-c4ccccc4)n[nH]n3c21` ?
Reply: inactive

Ask: `O=C1c2cccc3cccc(c23)C(=O)N1CCCCN1CCN(CCCCOc2ccc(-c3nc4ccc(N5CCOCC5)cc4[nH]3)cc2)CC1` ?
Reply: inactive

Ask: `COc1cc(CNc2oc(-c3ccccc3)c(-c3ccccc3)c2C#N)cc(CN2CCN(C)CC2)c1O` ?
Reply: inactive

Ask: Cn1nc(N)c2cc([C@@H]3Nc4ccc5[nH]ncc5c4[C@H]4C5CCC(C5)[C@@H]34)ccc21 (some centres undefined) ?
Reply: inactive

Ask: `CN(C)C(=S)N=Nc1c(O)[nH]c2ccccc12` ?
Reply: inactive
